Would you kindly list Ki for each of these compounds?
- tgt: human GABAA α1β3γ2 receptor (Homo sapiens (Human), UniProt P14867+P18507)
- test.summary: Radioligand binding assay for γ2-containing GABAA subtypes, [3H]Flumazenil competition (α1β3γ2)
Respond numerically; units are µM and should not be typed.

What Ki value was documented for this compound, C[C@@H]1N=C(c2ncccc2F)c2c(ccc(C(F)(F)F)c2Cl)-n2nc(C(=O)N3CCS(=O)(=O)CC3)nc21 [Example 124] ? 14.4

Try this compound next: C[C@@H]1N=C(c2c(F)cccc2F)c2c(ccc(C(F)(F)F)c2Cl)-n2nc(C(=O)NCCF)nc21 [Example 106] 4.19

And for C[C@@H]1N=C(c2c(F)cccc2F)c2c(ccc(Cl)c2Cl)-n2nc(C(=O)NCC#N)nc21 [Example 56] ? 0.432

Thanks! And C[C@@H]1N=C(c2c(F)cccc2F)c2c(ccc(C(F)(F)F)c2Cl)-n2cc(CO)nc21 [Example 149] ? 1.11

Can you check COC1CN(C(=O)c2nc3n(n2)-c2ccc(Cl)c(Cl)c2C(c2c(F)cccc2F)=N[C@H]3C)C1 [Example 16] next? 0.571

Further, for C[C@@H]1N=C(c2ncccc2F)c2c(ccc(C(F)(F)F)c2Cl)-n2cc(C(=O)NCC(C)(C)O)nc21 [Example 159] ? 8.32

Do the same for C[C@@H]1N=C(c2c(F)cccc2F)c2c(ccc(C(F)(F)F)c2Cl)-n2c(CO)cnc21 [Example 132] please 2.56

Again, but for CC1CN(C(=O)c2nc3n(n2)-c2ccc(Cl)c(Cl)c2C(c2ncccc2F)=N[C@H]3C)C1 [Example 87] 3.29

Also need C[C@@H]1N=C(c2c(F)cccc2F)c2c(ccc(Cl)c2Cl)-n2nc(C(=O)N3CC(OC(F)F)C3)nc21 [Example 31] , thanks. 0.565

Same question, COC1CN(C(=O)c2cn3c(n2)[C@H](C)N=C(c2ncccc2F)c2c-3ccc(C(F)(F)F)c2Cl)C1 [Example 145] this time 13.2

Now consider C[C@@H]1N=C(c2c(F)cccc2F)c2c(ccc(C(F)(F)F)c2Cl)-n2nc(C(=O)N3CCS(=O)(=O)CC3)nc21 [Example 114] and answer again. 3.09

Would you mind doing [2H]C([2H])([2H])NC(=O)c1nc2n(n1)-c1ccc(C(F)(F)F)c(Cl)c1C(c1c(F)cccc1F)=N[C@H]2C [Example 34] as well? 2.18

And for C[C@@H]1N=C(c2ncccc2F)c2c(ccc(C(F)(F)F)c2Cl)-n2c(CO)cnc21 [Example 151] ? 13.2

And then C[C@@H]1N=C(c2c(F)cccc2F)c2c(ccc(Cl)c2Cl)-n2nc(N3CCCC3=O)nc21 [Example 50] , what is it? 0.376
